# System: MS2 coat protein
# experiment: apparent KD of MS2 coat protein; higher = weaker reporter binding
# experimental_conditions: Eterna round: R107; input ligand: arginine 13.2 mM
readout_kind: apparent KD of MS2 coat protein (nM)
One number for each entry, in nM.

Recorded apparent KD of MS2 coat protein, per entry:
UUCAGCUAGUCGGCCGCCACUACUUGAGGAUCACCCAGGUAGGUCCACACUGCUUCGGCAGUGAGUAGGACCGGGACUAGCUGAG = 31
UAGCGAUUUGGUGAUACCAGACGUGUGCAGUCCUCAGACAUGAGGAUCACCCAUGUAUGCGUCCCUUGGCAGCGCUAUGAGGACA [Theo B Ex t6] = 66.5
GAUAGAACAAAAGUUUUAUCAGUGGGUGAACGAGGACCGGUACGGCCGCCACUCGGACAUGAGGAUCACCCAUGUCCAUGUGAAA [AstrosExyTryA#17] = 12.6
AAACAGUCGGACAUGAGGAUCACCCAUGUGCGAGGACCGGUACGGCCGCCACUCGACAAGGGCGGUCCCGAAGCAAACAUACGCG [Enedquceor] = 12.2
AAUAACAUGAGGAUCACCCAUGUAAAAGAUACCAGGGUGAUGAUCCUCCCUUGGCAGCUUACAGCUGAUCAAUAAGAUCGGCUGA [TheoAS #Tail #MS2BeforeAptamer #BothOrNeither] = 87.5

Fill in: apparent KD of MS2 coat protein of ACGAUAGGACCUGAGGAACACCCAGGUGAUACCAGCCUGGAAACAGGCCCUUGGCAGCACCAAUACUCCAAUAACCUAUCGAAUA [TheoAX 12 #MicroSwitchBubble #AlternativeMS2] is ___
141

---

# System: MS2 coat protein
# experiment: apparent KD of MS2 coat protein; designed switch direction (-1 OFF switch, 1 ON switch): 1; higher = weaker reporter binding
# experimental_conditions: input ligand: FMN 200 uM
Rule: apparent KD of MS2 coat protein of 100 nM or more gives 1; anything lower gives 0.

Example entries begin here.
UGUACUUUCAUAGGAUAUCAUGCGAAAAUUGCGUGAGAAGGGUGAAUACUGUCUUUCUAAGAGUACAUGAGGAUCACCCAUGUA [SameState NG1 #63] (Eterna round: R96, puzzle: Same State NG 1) = 0
UUAAUAAUGUAAGGAUAUACAUGAGGAUUUCUCGUAGAAGGUACAUUACAUGAGGAUCACCCAUGUGGGUGUCAGAAGACGCCA [Mat - Same State NG 1 - JL mod - D13] (Eterna round: R96, puzzle: Same State NG 1) = 1
AUUGCUUUCGCAGGAUAUGAUGCGAAAAUUGCGUCAGAAGGGUGGAGUAUCUCAUUGCAACAGGACAUGAGGAUCACCCAUGUC [SameState NG1 #88] (Eterna round: R96, puzzle: Same State NG 1) = 0
ACAUGAGGAUCACCCAUGUAUGCUCAGGAAACUGUGCAUCGUGAGGAUAUGGAUCCUAAUUGGAUCCAGAAGGCAUGUAUUAUU [Fiskers NG3ss - 27] (Eterna round: R96, puzzle: Same State NG 3) = 1
GCUUCGGCGGUAGGAUAUCUAGGAUAUGGGAAAGACUAAGUCUGUAGGUCACCUAACCCAGAAGGAGAGAAGGACAGGUUCGCC [pwkr ssNG2 2FMN + F9.35] (Eterna round: R96, puzzle: Same State NG 2) = 1

Decide: apparent KD of MS2 coat protein of UUUCCAUAGAUAGGAUAUCAGUUUACAUGAGGAUCACCCAUGUUCUCUUUGGUUUUAAUUUUUUCUGAGAAGGAUCUUGAUGAA [JR_SSNG2_Sub001] (Eterna round: R96, puzzle: Same State NG 2) >= 100 nM?
0

Decide: apparent KD of MS2 coat protein of GCUAGGAAUAAAGCCAACAUGAGGAUCACCCAUGUAUGUUGGUAGGAUAUCGUUUGCAAAGCAAACGAGAAGGGCUAACCUAGC [Mat - Same State NG 3 - JL Mod - D68] (Eterna round: R96, puzzle: Same State NG 3) >= 100 nM?
0

Decide: apparent KD of MS2 coat protein of UGGCUCAGACGAGGAUAUAUGUAAUAACAUGAGGAUCACCCAUGUGUCGAGCUUCGGCUCGACACAUAGAAGGCGUCUGAGCCA [SSNG2/2-A2] (Eterna round: R96, puzzle: Same State NG 2) >= 100 nM?
0

Decide: apparent KD of MS2 coat protein of CGUCCGGCCUGAGCUGGACGGAGGCAUGUACAUGAGGAUCACCCAUGUUCAUGUGCAGGCUUUUUGCUCGUCUUGUG [JL-shm-2.07 JL mod] (Eterna round: R96, puzzle: Sensor for hsa-mir-208a) >= 100 nM?
0

Decide: apparent KD of MS2 coat protein of GUGGUCAAUCAAGGAUAUGGAGCCUUAUUGGCUCCAGAAGGUGGGACAUGAGGAUCACCCAUGUGGCAGUGGUCAAAUGACCAC [Fiskers NG1ss - 34] (Eterna round: R96, puzzle: Same State NG 1) >= 100 nM?
1

Decide: apparent KD of MS2 coat protein of AAAUAGCAUGGAAACAUGCUAAAAACUGUACAUGAGGAUCACCCAUGUCAUGUGUAGGCUUUUUGUUCGUCUUAUAA [Effort 12] (Eterna round: R96, puzzle: Sensor for hsa-mir-208a) >= 100 nM?
0

Decide: apparent KD of MS2 coat protein of AGCUAUUAAUCAGGAUAUGGUCACAUGAGGAUCACCCAUGUAUCGAUGAUAUGAUGUGGUCAAUACUAGAAGGGAUUGCUAACA [SameState NG2 #64] (Eterna round: R96, puzzle: Same State NG 2) >= 100 nM?
1

Decide: apparent KD of MS2 coat protein of AUAUGAGAAGCAGGAUAUGUGGAGAAGAAACAAACAGAAGGGUUUAUGGGACAACAUGAGGAUCACCCAUGUUCUCUGUGAUGA [AK SSNG1-V2-2] (Eterna round: R96, puzzle: Same State NG 1) >= 100 nM?
0

Decide: apparent KD of MS2 coat protein of GCUCUGGCGGUAGGAUAUCUAGGAUAUGGGAAAGACUAAGUCUGUAGGUCACCUAACCCAGAAGGAGAGAAGGACCCUGUAAGG [pwkr ssNG2 2FMN + F9.23] (Eterna round: R96, puzzle: Same State NG 2) >= 100 nM?
0

Decide: apparent KD of MS2 coat protein of AACAUGAGGAUCACCCAUGUCAGGCCGCCGGCCUACAUGAGGAAGGAUAUAGCCUCGAAAAUUGGCUAGAAGGUCCUCAUGAAU [Letemaar] (Eterna round: R96, puzzle: Same State NG 3) >= 100 nM?
1

Decide: apparent KD of MS2 coat protein of UUGAGGAAUUAAGGAUAUUGAGUACAUAUGUUUAACAUGAGGAUCACCCAUGUGGGUUGCGGUAUCGAGAAGGUAAAUUACUAC [salish99_SSNG2_r04_801] (Eterna round: R96, puzzle: Same State NG 2) >= 100 nM?
1

Decide: apparent KD of MS2 coat protein of AAAGGAUGAUGUUACAUGAGGAUCACCCAUGUUGUGAUAACUAAGGAUAUGUGUUUAACUAGUUAAUAGAAGGUAGGAUCAUAA [AK SSNG3-V2-3] (Eterna round: R96, puzzle: Same State NG 3) >= 100 nM?
1

---

# System: MS2 coat protein
# experiment: apparent KD of MS2 coat protein; designed switch direction (-1 OFF switch, 1 ON switch): -1; higher = weaker reporter binding
# experimental_conditions: Eterna round: R95; input ligand: none
Rule: apparent KD of MS2 coat protein of 20 nM or more gives rule met; anything lower gives rule not met.

Example entries begin here.
CUUUUGUGAGGAUAUCAGUAGUAAAAAAAUAAAAUUACUACUGAGAAGGCACAUGAGGAUCACCCAUGUUCCUU [salish99_ex4_r3_010] (puzzle: Exclusion 4) = rule not met
AGUAACUAUCACGAAAGUGAUAGUUACACAAGUGAAUAAACAUGAGGAUCACCCAUGUCCUCAUUUGCUCGUCUUAU [Sensor 3 - 16] (puzzle: Sensor v3, turn-off variant 2) = rule met
GAUUAUGCGAGCUUUAGGGACAUGAGGAUCACCCAUGUUCGUCUUAUUAAUCUAGGUGCACUGACAUACCUAAAUCU [JMF 87] (puzzle: Sensor v3, turn-off variant 1) = rule met
AUUAAAACAUAGGAUAUCGAAAUUAUUAUUUAACGAGAAGGAUGAACAUGAGGAUCACCCAUGUGGUAUCAUGG [Mat - Exclusion 6 - JL Mod - D28] (puzzle: Exclusion 6) = rule met

Now look at this one.
Decide: apparent KD of MS2 coat protein of AGUGGUAGUAUCCGAUCCUACAUGAGGAUCACCCAUGUAGCUAGACGUGCACGCGAUGCUCGUCAGACUACCAGAUG [salish99_TOv1_r3_040] (puzzle: Sensor v3, turn-off variant 1) >= 20 nM?
rule not met
